B1: MXI1 peptide 6-21 (Max-interacting protein 1), 16-mer library wild type / SIN3A PAH2 (SIN3A PAH domain, residues 295-383) (parent)
chain 1: MINVQRLLEAAEFLER
chain 2: SLQNNQPVEFNHAINYVNKIKNRFQGQPDIYKAFLEILHTYQKEQRNAKEAGGNYTPALTEQEVYAQVARLFKNQEDLLSEFGQFLPDA

Variants of: B1
MEASUREMENT_NOTES: proteomic peptide phage display deep mutational scan (ProP-PD DMS): M13 P8 16-mer library selected against immobilised GST-tagged bait for four days (rounds), NGS of the eluted pools per day and pseudo-replica
CONDITION: with SIN3A PAH2 (SIN3A PAH domain, residues 295-383); bait immobilised on MaxiSorp plates (10 µg), library pre-cleared on GST, 2 h binding at 4 °C, five washes; one round per day, days 1-4; value from days 2 and 3; keep out of graded; scale: average fractional NGS count over selection days 2 and 3
ENDPOINT_NAME: screen value
Respond with the number and no other words.

Requested read-out: screen value. Entry: chain 1 V4S
0

Requested read-out: screen value. Entry: chain 1 L8W
6.64e-05

Requested read-out: screen value. Entry: chain 1 L14F
3.78e-05

Requested read-out: screen value. Entry: chain 1 L7V
6.69e-05

Requested read-out: screen value. Entry: chain 1 L8A
2.84e-05

Requested read-out: screen value. Entry: chain 1 L14Q
7.31e-05

Requested read-out: screen value. Entry: chain 1 I2K
0

Requested read-out: screen value. Entry: chain 1 R6T
0

Requested read-out: screen value. Entry: chain 1 A11V
2.84e-05

Requested read-out: screen value. Entry: chain 1 R6D
5.76e-05

Requested read-out: screen value. Entry: chain 1 M1T
0

Requested read-out: screen value. Entry: chain 1 V4E
0

Requested read-out: screen value. Entry: chain 1 A10R
0

Requested read-out: screen value. Entry: chain 1 F13I
1.91e-05

Requested read-out: screen value. Entry: chain 1 L7R
0

Requested read-out: screen value. Entry: chain 1 I2G
6.22e-05

Requested read-out: screen value. Entry: chain 1 A11T
9.14e-05

Requested read-out: screen value. Entry: chain 1 M1A
6.67e-05

Requested read-out: screen value. Entry: chain 1 A11D
0.000105

Requested read-out: screen value. Entry: chain 1 Q5P
3.48e-05

Requested read-out: screen value. Entry: chain 1 A11S
8.92e-05

Requested read-out: screen value. Entry: chain 1 M1H
8.47e-05

Requested read-out: screen value. Entry: chain 1 V4R
0

Requested read-out: screen value. Entry: chain 1 V4M
7.16e-05

Requested read-out: screen value. Entry: chain 1 M1L
3.46e-05

Requested read-out: screen value. Entry: chain 1 R6F
4.27e-05

Requested read-out: screen value. Entry: chain 1 V4P
1.91e-05

Requested read-out: screen value. Entry: chain 1 A10Q
0

Requested read-out: screen value. Entry: chain 1 N3R
4.48e-05

Requested read-out: screen value. Entry: chain 1 L8R
4.34e-05

Requested read-out: screen value. Entry: chain 1 V4G
6.66e-05

Requested read-out: screen value. Entry: chain 1 N3A
0

Requested read-out: screen value. Entry: chain 1 A10H
2.36e-05

Requested read-out: screen value. Entry: chain 1 Q5D
0

Requested read-out: screen value. Entry: chain 1 Q5W
6.78e-05

Requested read-out: screen value. Entry: chain 1 A10I
4.73e-05

Requested read-out: screen value. Entry: chain 1 F13P
4.79e-05
